Attribution: patent US20240116985A1

// reported CHI Log D for each item listed
ASSAY METHOD TEXT: CHI Log D procedure
Type: physicochemical
TEST CONTEXT: pH 7.4
Respond numerically, and do not add a unit to the figure.

Example entries and their recorded answers appear below.
| MOLECULE | REPORTED ENDPOINT | QUANTITATIVE READOUT |
| --- | --- | --- |
| CC(=O)N1CCC[C@]12CC=CCCCC1(CCCC=CCCCOC(=O)N3CC[C@@](C(=O)N[C@@H](Cc4ccccc4)C(=O)N[C@@H](Cc4csc5ccccc45)C(=O)N[C@@H](CCC(N)=O)C(N)=O)(C3)NC(=O)[C@H](CC(C)C)NC(=O)[C@H](Cc3ccccc3)NC(=O)[C@H](C)NC(=O)[C@H](C)NC(=O)[C@H](CCC(=O)O)NC(=O)[C@H](CC(=O)O)NC1=O)NC(=O)[C@H](CC(C)(C)C)NC(=O)[C@H](CC(=O)O)NC2=O (stereo partly drawn) [I-1073] | CHI Log D | 1.831 |
| CC(=O)N1CCC[C@]12CC=CCCCC1(CCCC=CCCCCCC[C@@](C)(C(=O)N[C@@H](Cc3ccccc3)C(=O)N[C@@H](Cc3c[nH]c4ccc(C5CC5)cc34)C(=O)N[C@@H](CCC(N)=O)C(N)=O)NC(=O)[C@H](C(C)C)NC(=O)[C@H](Cc3ccccc3)NC(=O)[C@H](C)NC(=O)[C@H](C)NC(=O)[C@H](CCC(=O)O)NC(=O)[C@H](CC(=O)O)NC1=O)NC(=O)[C@H](C)NC(=O)[C@H](CC(=O)O)NC2=O (stereo partly drawn) [I-171] | CHI Log D | 2.204 |

molecule CC(=O)N1CCC[C@]12CC=CCCCC1(CCCC=CCCCCCC[C@@](C)(C(=O)N[C@@H](Cc3ccccc3)C(=O)N[C@@H](Cc3csc4ccccc34)C(=O)N[C@H](CC(N)=O)C(N)=O)NC(=O)[C@H](CC(N)=O)NC(=O)[C@H](Cc3ccccc3)NC(=O)[C@H](C)NC(=O)[C@H](C)NC(=O)[C@H](CCC(=O)O)NC(=O)[C@H](CC(=O)O)NC1=O)NC(=O)[C@H](CC(C)C)NC(=O)[C@H](CC(=O)O)NC2=O (stereo partly drawn) [I-757] , CHI Log D observed: 2.546

* * *

TARGET: full-length beta-Catenin (Uniprot ID P35222) (Homo sapiens, UniProt P35222)
Construct: 10 nM full-length beta-Catenin (Uniprot ID P35222)
Sequence (P35222 whole entry): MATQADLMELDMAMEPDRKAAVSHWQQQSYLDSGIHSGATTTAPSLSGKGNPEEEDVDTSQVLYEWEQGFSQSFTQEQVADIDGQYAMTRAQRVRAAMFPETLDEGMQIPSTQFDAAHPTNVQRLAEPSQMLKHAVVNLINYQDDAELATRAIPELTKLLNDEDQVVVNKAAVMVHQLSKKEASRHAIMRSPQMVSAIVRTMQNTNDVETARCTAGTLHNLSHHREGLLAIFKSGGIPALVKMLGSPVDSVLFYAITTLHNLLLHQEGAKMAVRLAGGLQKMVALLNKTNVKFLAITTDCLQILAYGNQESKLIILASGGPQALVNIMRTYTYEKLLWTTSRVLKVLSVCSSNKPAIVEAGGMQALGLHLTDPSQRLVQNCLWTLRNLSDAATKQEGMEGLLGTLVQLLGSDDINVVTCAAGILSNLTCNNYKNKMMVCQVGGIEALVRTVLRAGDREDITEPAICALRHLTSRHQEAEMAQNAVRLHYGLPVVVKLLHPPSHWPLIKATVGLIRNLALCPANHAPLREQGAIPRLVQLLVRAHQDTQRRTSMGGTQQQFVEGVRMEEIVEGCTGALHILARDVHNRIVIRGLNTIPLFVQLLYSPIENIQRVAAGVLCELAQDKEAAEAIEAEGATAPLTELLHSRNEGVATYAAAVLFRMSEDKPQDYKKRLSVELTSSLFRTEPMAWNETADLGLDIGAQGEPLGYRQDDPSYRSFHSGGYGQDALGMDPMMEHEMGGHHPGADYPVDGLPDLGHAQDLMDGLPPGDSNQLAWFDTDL
ASSAY METHOD TEXT: Fluorescence polarization IC50 (beta-catenin / 5FAM-TCF4 10-53 competition)
Type: binding
TEST CONTEXT: read-out: beta-Catenin FP IC50
REPORTED ENDPOINT: IC50 (nM)
Please give a number only; it is taken to be in nM.

| COMPOUND | IC50 [nM] |
| --- | --- |
| CC(=O)N1CCC[C@]12CC=CCCCC1(CCCC=CCCCOC(=O)N3CC[C@@](C(=O)N[C@@H](Cc4ccccc4Cl)C(=O)N[C@@H](Cc4csc5ccccc45)C(=O)N[C@@H](CCC(N)=O)C(N)=O)(C3)NC(=O)[C@H](CC(C)C)NC(=O)[C@H](Cc3ccccc3)NC(=O)[C@H](C)NC(=O)[C@H](C)NC(=O)[C@H](CC(=O)O)NC(=O)[C@H](CC(=O)O)NC1=O)NC(=O)[C@H](CC(C)(C)C)NC(=O)[C@H](CC(=O)O)NC2=O (some centres unmarked) [I-1062] | 11 |

// below: IC50 requested for another compound
compound CC(=O)N1CCC[C@]12CC=CCCCC1(CCCC=CCCCCCC[C@@](C)(C(=O)N[C@@H](Cc3ccccc3)C(=O)N[C@@H](Cc3csc4ccccc34)C(=O)N(C)[C@@H](CO)C(N)=O)NC(=O)[C@H](CC(N)=O)NC(=O)[C@H](Cc3ccccc3)NC(=O)[C@H](C)NC(=O)[C@H](C)NC(=O)[C@H](CCC(=O)O)NC(=O)[C@H](CC(=O)O)NC1=O)NC(=O)[C@H](CC(C)C)NC(=O)[C@H](CC(=O)O)NC2=O (some centres unmarked) [I-760] , IC50 observed: 608
